Data origin: the supplement of paper PMC9732359

- Experiment Notes: protein stability index of a GFP-peptide fusion (yeast GPS) (PSI 1-4); higher = more stable; sorted into four equal gates, so the index is relative within each strain
- Test Parameters: pdr5∆
Exercise: for every item that follows, state its recorded protein stability index.
Give bare numbers.

ATNANATTDQEGDIHLE [PRE10] ... 3.39
TRRKRRQGRSNRRGMLA [SNF5] ... 2.71
FPSSETTSLNPIQSKVF [BRR2] ... 2.52
YNNRSLLDFNTALKQYE [RPN6] ... 3.04

Hi! Can you tell me protein stability index for each of these sequences?
1. NRQICLVQKTVQESGNI [GRR1]
2. SKMYNTDKKAFLGALKY [PRP8]
3. RNSWNFALIDYFYDLDV [BRN1]

Result:
3.21
2.27
1.87

Q: Return reported protein stability index; argument: EGARMVRELFEMARTKK [RPT1]
Result: 1.7
